System: 3T3-L1
Run Description: In vitro fold stimulation of glucose transporter protein in 3T3-L1 adipocytes at a concentration of 30 uM
Type: functional, Mus musculus
Measured Attribute: GT fold stimulation

>>> measured_result("O=C1NC(=O)C(Cc2ccc3c(c2)CCC2(CCCCCC2)O3)S1 (stereo not given)")
1.12
>>> measured_result("O=C1NC(=O)C(Cc2ccc3c(c2)CC2(CCCCC2)CO3)S1 (stereo not given)")
1.23
>>> measured_result("O=C1NC(=O)C(Cc2ccc3c(c2)CCC(c2ccccc2)O3)S1 (stereo not given)")
1.37
>>> measured_result("O=C1NC(=O)C(Cc2ccc3c(c2)CCC2(CCCC2)O3)S1 (stereo not given)")
1.1
>>> measured_result("O=C1NC(=O)C(Cc2ccc3c(c2)CC(C2CCCCC2)O3)S1 (stereo not given)")
1.42
>>> measured_result("O=C1NC(=O)C(Cc2ccc3c(c2)CCC(CC2CCCCC2)O3)S1 (stereo not given)")
1.28
>>> measured_result("O=C1NC(=O)C(Cc2ccc3c(c2)CCC(Cc2ccccc2)(Cc2ccccc2)O3)S1 (stereo not given)")
1.23
>>> measured_result("O=C1NC(=O)C(Cc2ccc3c(c2)CCC(C2CCCCC2)O3)S1 (stereo not given)")
1.23
>>> measured_result("CC1(C2Cc3cc(CC4SC(=O)NC4=O)ccc3O2)CCCCC1 (stereo not given)")
1.22
>>> measured_result("O=C1NC(=O)C(Cc2ccc3c(c2)CC(Cc2ccccc2)O3)S1 (stereo not given)")
1.51
>>> measured_result("O=C1NC(=O)C(Cc2ccc3c(c2)CC[C@@H](Cc2ccccc2)O3)S1 (stereo not given in full)")
1.17
>>> measured_result("COc1ccc(CC2CCc3cc(CC4SC(=O)NC4=O)ccc3O2)cc1 (stereo not given)")
1.21
>>> measured_result("O=C1NC(=O)C(Cc2ccc3c(c2)CC(c2ccccc2)O3)S1 (stereo not given)")
1.42
>>> measured_result("O=C1NC(=O)C(Cc2ccc3c(c2)CCC(Cc2ccccc2)O3)S1 (stereo not given)")
1.48
>>> measured_result("O=C1NC(=O)C(Cc2ccc3c(c2)CC2(CCCCC2)O3)S1 (stereo not given)")
1.36
